Sourced from patent US11981658B2

system.tested: EGFR L858R/T790M/C797S (Homo sapiens, UniProt P00533, C797S/L858R/T790M)
Sequence (P00533 25-1210 T790M/C797S/L858R): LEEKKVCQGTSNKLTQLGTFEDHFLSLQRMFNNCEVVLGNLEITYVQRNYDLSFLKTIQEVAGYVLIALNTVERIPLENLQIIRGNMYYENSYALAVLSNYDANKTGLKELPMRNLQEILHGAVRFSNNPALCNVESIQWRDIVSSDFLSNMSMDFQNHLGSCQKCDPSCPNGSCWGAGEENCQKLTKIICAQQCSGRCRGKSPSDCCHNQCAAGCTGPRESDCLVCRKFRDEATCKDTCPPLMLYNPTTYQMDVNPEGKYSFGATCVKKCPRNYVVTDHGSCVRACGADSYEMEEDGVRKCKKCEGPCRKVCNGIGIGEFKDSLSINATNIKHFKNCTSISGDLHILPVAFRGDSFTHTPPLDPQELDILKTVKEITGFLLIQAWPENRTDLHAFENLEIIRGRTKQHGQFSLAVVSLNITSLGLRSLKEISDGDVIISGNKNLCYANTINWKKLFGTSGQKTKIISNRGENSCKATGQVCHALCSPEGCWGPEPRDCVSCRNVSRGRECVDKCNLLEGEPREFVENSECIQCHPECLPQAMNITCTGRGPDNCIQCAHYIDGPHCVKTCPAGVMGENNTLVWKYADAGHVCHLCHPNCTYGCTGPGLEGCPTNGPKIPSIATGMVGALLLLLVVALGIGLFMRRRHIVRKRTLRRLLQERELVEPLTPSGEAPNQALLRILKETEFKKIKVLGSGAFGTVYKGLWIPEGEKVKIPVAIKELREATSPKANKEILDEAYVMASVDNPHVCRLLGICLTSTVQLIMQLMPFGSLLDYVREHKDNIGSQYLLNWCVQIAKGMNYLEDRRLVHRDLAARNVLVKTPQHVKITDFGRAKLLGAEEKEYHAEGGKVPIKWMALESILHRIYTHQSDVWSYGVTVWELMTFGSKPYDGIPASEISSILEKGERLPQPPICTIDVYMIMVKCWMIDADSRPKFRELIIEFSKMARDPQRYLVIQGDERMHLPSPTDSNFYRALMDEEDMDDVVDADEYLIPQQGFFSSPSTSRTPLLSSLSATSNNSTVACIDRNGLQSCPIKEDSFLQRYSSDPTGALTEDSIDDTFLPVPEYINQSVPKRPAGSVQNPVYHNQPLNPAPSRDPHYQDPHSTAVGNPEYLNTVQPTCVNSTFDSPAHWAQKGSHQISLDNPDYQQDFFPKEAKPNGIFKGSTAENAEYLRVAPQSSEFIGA
experiment: Biochemical EGFR kinase inhibition assay (Lance Ultra TR-FRET), triple mutant L858R/T790M/C797S
assay.setup: IC50 L858R/T790M/C797S (nM), 100 μM ATP
reported.metric: IC50 (nM)

Reference set, count: 10
molecule	reported.metric	readout.unit	numeric.value
CC1(CO)CCN(c2cc(Nc3ccnc(-c4cnn(S(=O)(=O)C5CC5)c4)n3)ncc2C#CCCO)CC1 [Example 274]	IC50	nM	0.2
CN1CC(n2cc(C#Cc3cnc(Nc4ccnc(-c5cnn(S(=O)(=O)C6CC6)c5)n4)cc3N3CCC(C)(CO)CC3)cn2)C1 [Example 148]	IC50	nM	0.2
CN(C)Cc1ccc(C#Cc2cnc(Nc3ccnc(-c4cnn(S(=O)(=O)C5CC5)c4)n3)cc2N2CCC(C)(CO)CC2)cc1 [Example 254]	IC50	nM	0.2
CC1OCCC1C#Cc1cnc(Nc2ccnc(-c3cnn(S(=O)(=O)C4CC4)c3)n2)cc1N1CCC(C)(CO)CC1 (centres unmarked) [Example 438]	IC50	nM	0.7
Cn1cc(C#Cc2cnc(Nc3ccnc(-c4cnn(S(=O)(=O)C5CC5)c4)n3)cc2N2CCCC(CF)C2)cn1 (centres unmarked) [Example 72]	IC50	nM	16.9
O=S(=O)(C1CC1)n1cc(-c2nccc(Nc3cc(N4CCC(NCCF)CC4)c(C#Cc4cnn(C5CCOCC5)c4)cn3)n2)cn1 [Example 136]	IC50	nM	1.2
O=S(=O)(C1CC1)n1cc(-c2nccc(Nc3cc(N[C@H]4CC[C@@H](CO)CC4)c(C#CC4C[C@@H]5CC[C@@H]4O5)cn3)n2)cn1 (some centres unmarked) [Example 422]	IC50	nM	0.5
Cn1cc(C#Cc2cnc(Nc3ccnc(-c4cnn(S(=O)(=O)C5CC5)c4)n3)cc2N2CCC3(CCNC3=O)CC2)cn1 [Example 79]	IC50	nM	0.8
COC1CCN(c2cc(Nc3ccnc(-c4cnn(S(=O)(=O)C5CC5)c4)n3)ncc2C#Cc2cnn(C3CCOCC3)c2)CC1 [Example 98]	IC50	nM	9.9
Cn1cc(C#Cc2cnc(Nc3ccnc(-c4cnn(S(=O)(=O)C5CC5)c4)n3)cc2N2CCCC(O)C2)cn1 (centres unmarked) [Example 6]	IC50	nM	4.2

I: COC1(O)CCN(c2cc(Nc3ccnc(-c4cnn(S(=O)(=O)C5CC5)c4)n3)ncc2C#Cc2ncc(CN3CCOCC3)cn2)CC1 [Example 365]
II: CC1(O)CCN(c2cc(Nc3ccnc(-c4cnn(S(=O)(=O)C5CC5)c4)n3)ncc2C#CC2CC3CCC2O3)CC1 (centres unmarked) [Example 424]
I or II : whose IC50 is greater? Bench note: the answer is the label of the chosen record.
I
(I: 1.3 nM, II: 0.3 nM)
